The values you see were collected from PubChem BioAssay (NCI).

# System: DLD-1 colon
# assay.protocol: NCI tumour cell line growth inhibition, 48 h
The entries below come with measured TGI values attached.

# compound, TGI
rows = [
    ("O=C1Nc2ccccc2N=CC1NC(=O)C(c1ccccc1)c1ccccc1 (stereo not given)", "> 100 µM"),
    ("C[N+](C)(C)CC1CCCC1=O (stereo not given)", "3.15 µM"),
    ("Nc1[nH]c(=O)nc2c1cnn2C1CCCCO1 (stereo not given)", "> 100 µM"),
    ("Cc1nc(C(=O)O)c2ccccc2n1", "> 100 µM"),
]

Kindly consider the entry below.
Value wanted: TGI (DLD-1 colon) of entry C=C(C)C1Cc2c(c3ccccc3n(C)c2=O)O1 (stereo not given)
> 100 µM
